Biological target: T1, purified recombinant IFNAR-1 extracellular fragment (human, UniProt P17181 28-436)
T1 construct: extracellular domain; also called soluble IFNAR-1; soluble IFNAR
T1 sequence (looked up): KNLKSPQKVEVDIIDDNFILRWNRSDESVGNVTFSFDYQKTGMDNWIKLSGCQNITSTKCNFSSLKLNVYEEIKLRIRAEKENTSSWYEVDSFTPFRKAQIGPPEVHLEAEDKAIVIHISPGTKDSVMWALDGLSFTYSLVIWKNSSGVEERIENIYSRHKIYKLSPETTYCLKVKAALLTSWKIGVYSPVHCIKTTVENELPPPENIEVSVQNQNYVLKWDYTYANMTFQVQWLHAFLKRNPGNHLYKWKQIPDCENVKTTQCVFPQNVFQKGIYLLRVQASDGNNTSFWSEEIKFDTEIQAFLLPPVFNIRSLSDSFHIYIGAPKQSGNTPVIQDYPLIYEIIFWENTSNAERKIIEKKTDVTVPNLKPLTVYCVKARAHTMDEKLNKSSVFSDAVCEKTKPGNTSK
Assay: Biacore, maximal association on IFNAR-1 relative to M3K1

| BINDER | MEASURE_UNIT | % activity relative to M3K1 |
| --- | --- | --- |
| M3-11 (X = S) heavy chain with K1 light chain (antibody, V domains shown, Position counted within VH CDR3; also called M3-11 S) VH: EVQLLESGGGLVQPGGSLRLSCAFSGFTLSTSGMGIGWVRQAPGKGLEWVAHIWWDDDKYYNPSLKSRFTISRDTSKNTVYLQMNSLRAEDTAVYYCARNYYPYDAWFDSWGQGTLVTVS VL: DIQMTQSPSSLSASVGDRVTITCSASSSINSNHLHWYQQKPGKAPKLLIYRTSILASGVPSRFSGSGSGTSFTLTISSLQPEDFATYYCQQGSNIPFTFGQGTKVEIK | % | 39 |
| M3-11 (X = T) heavy chain with K1 light chain (antibody, V domains shown, Position counted within VH CDR3; also called M3-11 T) VH: EVQLLESGGGLVQPGGSLRLSCAFSGFTLSTSGMGIGWVRQAPGKGLEWVAHIWWDDDKYYNPSLKSRFTISRDTSKNTVYLQMNSLRAEDTAVYYCARNYYPYDAWFDTWGQGTLVTVS VL: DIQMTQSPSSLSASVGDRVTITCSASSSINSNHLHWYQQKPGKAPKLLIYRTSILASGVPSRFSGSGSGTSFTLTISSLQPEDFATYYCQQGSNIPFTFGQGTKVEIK | % | 82 |
